Consider the following binders and their measured activity readings.
Biological target: Insulin receptor (hIR) expressed on Rat-1/hIR cells (Homo sapiens, UniProt P06213;P06213 P06213:28-758,P06213:763-1382)
Sequence (P06213 28-758, chain 1 of 2): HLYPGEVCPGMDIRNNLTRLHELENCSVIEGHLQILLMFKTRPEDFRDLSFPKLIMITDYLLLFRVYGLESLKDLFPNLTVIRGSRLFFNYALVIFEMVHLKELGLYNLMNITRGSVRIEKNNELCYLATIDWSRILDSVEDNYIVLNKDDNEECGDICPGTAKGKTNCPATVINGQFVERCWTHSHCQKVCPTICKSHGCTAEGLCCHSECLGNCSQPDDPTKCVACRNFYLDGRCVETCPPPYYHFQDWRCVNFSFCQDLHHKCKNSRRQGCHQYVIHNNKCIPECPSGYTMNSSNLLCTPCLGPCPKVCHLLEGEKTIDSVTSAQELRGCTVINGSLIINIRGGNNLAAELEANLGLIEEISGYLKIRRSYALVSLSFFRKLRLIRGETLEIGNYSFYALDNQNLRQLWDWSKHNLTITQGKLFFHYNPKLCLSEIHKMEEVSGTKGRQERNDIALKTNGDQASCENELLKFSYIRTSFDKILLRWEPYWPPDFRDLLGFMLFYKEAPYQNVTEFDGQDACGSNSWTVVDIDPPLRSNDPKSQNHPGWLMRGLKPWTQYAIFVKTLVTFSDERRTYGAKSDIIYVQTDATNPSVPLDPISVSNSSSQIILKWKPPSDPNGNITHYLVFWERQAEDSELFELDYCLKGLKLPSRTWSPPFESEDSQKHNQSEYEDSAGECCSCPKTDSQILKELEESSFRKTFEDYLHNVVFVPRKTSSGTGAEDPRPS
Sequence (P06213 763-1382, chain 2 of 2): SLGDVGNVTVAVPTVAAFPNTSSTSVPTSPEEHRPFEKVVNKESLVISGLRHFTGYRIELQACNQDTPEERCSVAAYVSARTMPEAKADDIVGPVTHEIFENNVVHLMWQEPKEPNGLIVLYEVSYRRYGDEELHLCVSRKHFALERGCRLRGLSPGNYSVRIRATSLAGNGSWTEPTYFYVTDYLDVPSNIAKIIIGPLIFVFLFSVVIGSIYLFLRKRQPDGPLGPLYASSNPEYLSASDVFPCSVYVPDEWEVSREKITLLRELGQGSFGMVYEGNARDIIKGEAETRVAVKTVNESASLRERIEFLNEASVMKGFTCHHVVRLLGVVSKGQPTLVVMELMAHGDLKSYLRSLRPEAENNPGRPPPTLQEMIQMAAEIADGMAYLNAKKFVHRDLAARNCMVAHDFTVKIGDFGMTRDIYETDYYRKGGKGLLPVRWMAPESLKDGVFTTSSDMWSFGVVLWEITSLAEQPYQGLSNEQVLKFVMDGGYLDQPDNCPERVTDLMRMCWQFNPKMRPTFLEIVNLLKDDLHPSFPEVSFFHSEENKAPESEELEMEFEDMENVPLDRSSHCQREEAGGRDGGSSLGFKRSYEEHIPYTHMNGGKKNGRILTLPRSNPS
Assay: cell_activity; IR phosphorylation, 200 nM, Rat-1/hIR
Settings: chain copies: 2
quantity: activity

1) CGCCTGGTGTTCTAGACGACCTATAGGTTAGGC (ssDNA, P = naphthyl-dU; C3 linker at position 18) [A48m G18 C3-linker]: 1.16 fold of A48m
2) CGCCTGGTGTTCTAGACGACCTATAGGTTAGGC (ssDNA, P = naphthyl-dU; 2'-OMe at position 2) [A48m G2 2'-OMe]: 1.28 fold of A48m
3) CGCCTGGTGTTCTAGACGACCTATAGGTTAGGC (ssDNA, P = naphthyl-dU; 2'-F at position 27) [A48m G27 2'-F]: 1.11 fold of A48m
4) CGCCTGGTGTTCTAGACGACCTATAGGTTAGGC (ssDNA, P = naphthyl-dU; C3 linker at position 12) [A48m C12 C3-linker]: 1.7 fold of A48m

The origin of these recorded values is patent US20230159934.
